Where do these numbers come from? They come from the supplement of paper PMC10567573.

B1: GALNT9 (parent)
chain: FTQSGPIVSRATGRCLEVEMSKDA

variants of: B1; experiment: protein stability index of a GFP-peptide fusion (GPS, HEK-293T) (PSI 1-6); higher = more stable; conditions: c terminus: a fixed tail appended;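 also: lentivirally expressed fusions sorted by FACS into six bins by GFP to DsRed ratio, PSI derived from sequencing read proportions per bin multiplied by bin number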
The label depends only on protein stability index: Met if it is at least 3, Not met if it is smaller.

These recorded examples may help you get a feel for the data.
1) C15H Met
2) S21R Met
3) S4N Not met
4) G13M Not met
5) E17F Met
6) S4Q Not met
7) R14L Not met
8) T2A Not met

Exercise: Hi team, for A24N , is the recorded protein stability index at or above 3?
Solution: Not met

Exercise: Is protein stability index at least 3? Consider G5Y
Solution: Met

Exercise: Hello, I need to know if E19F has measured protein stability index not below 3. Thanks!
Solution: Not met

Exercise: Given V18M , state whether its protein stability index is at least 3.
Solution: Not met

Exercise: Check this variant for protein stability index at or above 3: T2S
Solution: Not met

Exercise: Confirm if protein stability index reported for the variant T12Y is 3 or above.
Solution: Not met

Exercise: Could you please find out whether T2R has protein stability index that meets 3 or exceeds it?
Solution: Not met

Exercise: Form field: protein stability index at least 3? Entry: V18K
Solution: Met

Exercise: Is protein stability index at least 3? Consider M20L
Solution: Met

Exercise: Is protein stability index for Q3G at or above 3?
Solution: Not met

Exercise: For this variant, is measured protein stability index 3 or higher? G5N
Solution: Not met

Exercise: Is it the case that S21V has protein stability index reaching or exceeding 3?
Solution: Not met

Exercise: Reported protein stability index reaches at least 3 for R10L ?
Solution: Not met
